Where these numbers come from: ChEMBL document CHEMBL1201862

Test system: MDA-N
Assay: NCI tumour cell line growth inhibition, 48 h
The source made the active and inactive calls. Cut-off read from the data, not from the text of the source: active = GI50 up to about 1.1 µM and inactive = higher.
Documented GI50 across a set of molecules

Would you please look over these solved cases?
• O=C(Nc1ccc2ccccc2c1)c1cc2cc(CCl)ccc2oc1=O = > 100 µM (inactive)
• COc1cc(C2SC(=N)Nc3c2c(C)nn3C(=O)c2ccccc2O)cc(OC)c1OC (stereo unspecified) = 6.14 µM (inactive)
• COC(=O)CC1(CNC(=O)OCc2ccccc2)OCCO1 = > 100 µM (inactive)
• COC(=O)C1CCC(=S)N1C(=O)c1ccccc1 (stereo unspecified) = > 100 µM (inactive)
• CCCCCCCCC[n+]1cccc(C2C(C(=O)OCC)=C(C)NC(C)=C2C(=O)OCC)c1 = 2.13 µM (inactive)

Data request: Read the entry CC1(C)CC[C@]2(C)CC=C3[C@]4(C)CC[C@H]5C(C)(C)C(=O)CC[C@]5(C)[C@H]4CC[C@@]3(C)[C@H]2C1 and write its reported GI50.
Data returned: > 100 µM (inactive)
